Values from ChEMBL document CHEMBL5143528

Please provide measured IC50 for the entries that follow.
Assay: Cytotoxicity against human HaCaT cells assessed as inhibition of cell growth
Format: toxicity, cell-based

Some entries whose results are on file:
CC(C)c1cc(-c2n[nH]c(=O)n2-c2cccc(C(=O)NCCCCCCC(=O)NO)c2)c(O)cc1O; > 6.13 µM
CC(C)c1cc(-c2n[nH]c(=O)n2-c2ccc3c(ccn3C)c2)c(O)cc1O; < 0.015 µM
O=C(CCCCCCC(=O)Nc1ccccc1)NO; 1.85 µM
CC(C)c1cc(-c2n[nH]c(=O)n2-c2ccc(C(=O)NCCCCCCCC(=O)NO)cc2)c(O)cc1O; > 6.13 µM

Kindly consider the entry below.
Q. Requested read-out: IC50. Entry: CNC(=O)CCCCCCCNC(=O)c1cccc(-n2c(-c3cc(C(C)C)c(O)cc3O)n[nH]c2=O)c1
A. > 6.13 µM
